# Measured target: Arginase-2, mitochondrial (Homo sapiens) (UniProt P78540)
# Sequence (P78540 whole entry): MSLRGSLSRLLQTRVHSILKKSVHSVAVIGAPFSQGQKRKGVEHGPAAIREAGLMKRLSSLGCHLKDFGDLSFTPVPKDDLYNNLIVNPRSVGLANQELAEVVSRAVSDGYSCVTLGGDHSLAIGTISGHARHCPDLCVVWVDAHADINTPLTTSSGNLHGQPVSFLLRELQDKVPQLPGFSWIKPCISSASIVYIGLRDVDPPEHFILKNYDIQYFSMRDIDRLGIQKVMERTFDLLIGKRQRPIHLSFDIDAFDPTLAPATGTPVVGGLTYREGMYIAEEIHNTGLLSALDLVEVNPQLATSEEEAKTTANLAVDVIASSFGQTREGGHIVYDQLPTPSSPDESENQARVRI
# Assay overview: in vitro enzyme assay to detect the production of urea directly proportional to the activity of Arginase II; also: in the data most compounds retested in dose-response had high values
# Format: functional
# Set-up: scale not given: direction of the effect not stated beside the values
# Condition: 33.3 µM
Quantity measured: Percent Effect (%)
The reply should be a number in %, with the unit left off.

| Chemical smiles | Measured target | Quantity measured | Unit tag | Endpoint value |
| --- | --- | --- | --- | --- |
| CCn1cc(CN2CCCN(C(=O)Cc3cccs3)CC2)cn1 | Arginase-2, mitochondrial (Homo sapiens) (UniProt P78540) | Percent Effect | % | -0.76 |

Need Percent Effect, item `CCc1nc(CN2CCN(C(=O)Cc3c(C)noc3C)CC2)cs1`
2.87

Need Percent Effect, item `Fc1cnc(N2CCO[C@H]3CN(CC4CCCC4)C[C@H]32)nc1`
-60

Need Percent Effect, item `Cn1cc(CN2C[C@@H]3[C@@H](C2)OCC(=O)N3Cc2ccncc2)cn1`
0.81

Need Percent Effect, item `COc1ccc2c(ccn2CCN)c1`
0.176

====

# Measured target: Aspartate--tRNA(Asp/Asn) ligase (Mycobacterium tuberculosis (strain ATCC 25618 / H37Rv)) (UniProt P9WFW3); also: in the data most compounds retested in dose-response had high values
# Sequence (P9WFW3 whole entry): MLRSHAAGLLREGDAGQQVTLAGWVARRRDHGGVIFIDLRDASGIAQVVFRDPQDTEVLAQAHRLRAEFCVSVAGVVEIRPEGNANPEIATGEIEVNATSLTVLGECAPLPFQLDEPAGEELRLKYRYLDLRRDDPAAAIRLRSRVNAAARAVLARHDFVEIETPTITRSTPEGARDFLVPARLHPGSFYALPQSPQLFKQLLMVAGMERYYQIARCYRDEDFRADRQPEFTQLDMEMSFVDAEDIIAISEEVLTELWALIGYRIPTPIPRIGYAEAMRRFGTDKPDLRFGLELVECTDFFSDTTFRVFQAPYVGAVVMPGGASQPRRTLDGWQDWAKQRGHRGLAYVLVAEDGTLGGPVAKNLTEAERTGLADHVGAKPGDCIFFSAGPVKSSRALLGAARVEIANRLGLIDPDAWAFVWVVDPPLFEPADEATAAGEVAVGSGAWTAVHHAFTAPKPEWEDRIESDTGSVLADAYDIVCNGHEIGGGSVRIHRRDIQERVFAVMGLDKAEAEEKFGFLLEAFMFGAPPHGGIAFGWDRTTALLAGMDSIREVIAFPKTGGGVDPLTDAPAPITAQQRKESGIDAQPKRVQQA
# Assay overview: Assay for Asp RNA synthetase-1 from Mycobacterium tuberculosis
# Format: functional
# Set-up: scale not given: direction of the effect not stated beside the values
# Condition: 30 µM
Quantity measured: Percent Effect
// unit must come after the numeric part

Check out these entries, answers already filled in.
| Compound | Quantity measured | Endpoint value |
| --- | --- | --- |
| COc1cc(C)sc1C(=O)N1CC(c2cccnc2)C1 | Percent Effect | 3.09% |
| O=C1NCCCCC1Sc1nnc(-c2cccnc2)n1C1CC1 (stereo unspecified) | Percent Effect | -3.62% |
| COc1cccc(F)c1C(=O)N1C[C@@H](CN(C)CCO)[C@@H](CO)C1 | Percent Effect | -0.268% |
| CC[C@@H]1N(Cc2ccsc2)CCC[C@]12CCC(=O)N2CCOC | Percent Effect | -5.67% |

Need Percent Effect, item `Cc1cnc(NC(=O)N2CCCC2)s1`
1.37%

Need Percent Effect, item `CC1(C)CC(N(Cc2ccccc2)Cc2cccnc2)CC(C)(C)N1`
-4.09%

====

# maps each entry to its Percent Effect
# Measured target: Sialic acid-binding Ig-like lectin 9 (Homo sapiens) (UniProt Q9Y336)
# Sequence (Q9Y336 whole entry): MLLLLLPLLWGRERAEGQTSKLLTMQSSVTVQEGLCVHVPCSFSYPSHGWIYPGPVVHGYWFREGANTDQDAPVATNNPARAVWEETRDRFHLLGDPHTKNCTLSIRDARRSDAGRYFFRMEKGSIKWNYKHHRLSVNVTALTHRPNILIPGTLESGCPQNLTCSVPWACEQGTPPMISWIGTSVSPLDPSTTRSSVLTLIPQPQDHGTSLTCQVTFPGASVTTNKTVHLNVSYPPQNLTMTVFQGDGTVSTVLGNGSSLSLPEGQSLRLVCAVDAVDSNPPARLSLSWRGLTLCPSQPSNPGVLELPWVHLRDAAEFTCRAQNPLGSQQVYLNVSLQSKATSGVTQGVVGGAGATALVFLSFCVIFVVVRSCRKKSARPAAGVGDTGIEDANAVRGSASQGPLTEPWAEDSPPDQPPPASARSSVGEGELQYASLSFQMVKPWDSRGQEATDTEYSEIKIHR
# Assay overview: Hs-Siglec9 ALPHAscreen SOP 20170721
# Parameters: scale not given: direction of the effect not stated beside the values
# Condition: 10 µM

Check out these entries, answers already filled in.
| Molecule | Percent Effect |
| --- | --- |
| COC[C@]12COC[C@H]1CN(Cc1cccnc1OC)C2 | 1.86% |
| CCS(=O)(=O)NC[C@]12COC[C@H]1CN(Cc1cc(C)on1)C2 | 3.76% |
| CCOCC(O)CN1CCN(C(=O)Cc2ccc(C)nc2)CC1 (stereo not given) | 7.02% |
| O=C(NC[C@]12COC[C@H]1CN(Cc1ccncc1)C2)c1ccco1 | 2.99% |
| O=C1N(Cc2cccnc2)CCC12CCCNC2 (stereo not given) | -3.98% |
| CCn1ccnc1CN1CCCN(C(=O)Cc2ccc(C)nc2)CC1 | 3.18% |
| Cc1ncsc1CN1CC[C@H]2C[C@H](c3ccncn3)O[C@@H]2C1 | -6.01% |
| O=C([C@H]1C[C@H]2OCC[C@H]2N(Cc2cccnc2)C1)N1CCCO1 | -7.38% |

Need Percent Effect, item `COC[C@@H]1CCC[C@]12CN(Cc1cccc(C)n1)CCO2`
-3.4%

Need Percent Effect, item `O=C(c1ccsc1)N1CCN2C[C@H](OCc3cccnc3)C[C@H]2C1`
-1.36%

Need Percent Effect, item `Cc1nnc([C@H]2CC[C@@H]3[C@@H](CCN3Cc3c(C)noc3C)O2)o1`
-0.659%

Need Percent Effect, item `CO[C@@H]1CC[C@H]2[C@H]1OCCN2CC1CCOCC1`
10.8%

Need Percent Effect, item `COc1ccc2c(ccn2CCN)c1`
5.94%

Need Percent Effect, item `CNC(=O)[C@@]12CCCN(c3ncccn3)[C@@H]1CN(C)C2`
-6.43%
